Molecular target: MASP-2 CCP2-SP (Homo sapiens (Human), UniProt O00187)
Sequence (O00187 445-686): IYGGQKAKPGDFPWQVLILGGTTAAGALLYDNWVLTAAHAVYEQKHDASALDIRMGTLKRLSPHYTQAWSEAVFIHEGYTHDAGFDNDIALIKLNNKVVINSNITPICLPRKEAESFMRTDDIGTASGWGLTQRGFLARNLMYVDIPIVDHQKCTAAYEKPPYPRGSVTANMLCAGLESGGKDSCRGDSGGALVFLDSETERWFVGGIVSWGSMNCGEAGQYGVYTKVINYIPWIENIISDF
Sequence (O00187 364-432 partner): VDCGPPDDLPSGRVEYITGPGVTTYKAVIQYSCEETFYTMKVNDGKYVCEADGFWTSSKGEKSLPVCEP
Assay: MASP-2 co-crystallization, X-ray crystallography and structure analysis (H-bonds, van der Waals contacts)
Details: Table A6-2 pharmacophore angle
Where a name gives a salt, the structure may show the parent alone.
Assignment: determine reported a(O2, N2, CA2) for the given molecules.
Give bare numbers.

[[record]]
molecule = "N=C(N)c1ccc(CNC(=O)C(CF)NC(=O)[C@H](N)CCc2ccccc2)cc1 (stereo partly shown) [compound 1050, Dihydrochloride]"
reported = 153.66

[[record]]
molecule = "C[C@H](NC(=O)[C@H]1C[C@@H](c2ccccc2)CCN1)C(=O)NCc1cc(Cl)ccc1O.Cl [1078_7]"
reported = 151.33


Please report a(O2, N2, CA2) for every entry that follows.
1. C[C@H](NC(=O)[C@H](N)CCc1ccccc1)C(=O)NCc1ccc(N)nc1.Cl.Cl [1007_1]
2. C[C@H](NC(=O)[C@H]1C[C@@H](c2ccccc2)CCN1)C(=O)NCc1cc(Cl)ccc1O.Cl [1078_13]
3. Cc1nc(N)ccc1CNC(=O)[C@H](C)NC(=O)[C@H]1C[C@H](Cc2ccccc2-c2ccccc2)CN1 [compound 1373, Di-trifluoroacetate salt]
4. C[C@H](NC(=O)[C@H]1C[C@@H](c2ccccc2)CCN1)C(=O)NCc1cc(Cl)ccc1O.Cl [1078_4]
5. CC(=O)Nc1ccc(CCNC(CCc2ccccc2)C(=O)NC(C)C(=O)NCc2ccc(C(=N)N)cc2)cc1.Cl.Cl (stereo not shown) [1345_1]

[reply]
[154.71, 154.39, 156.78, 155.54, 153.15]

---

Molecular target: MASP-2 CCP2-SP (Homo sapiens (Human), UniProt O00187)
Assay: MASP-2 co-crystallization, X-ray crystallography and structure analysis (H-bonds, van der Waals contacts);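 as to Ligand-pharmacophore element distance, pharmacophore element C2: distance from averaged pharmacophore element to bound ligand; missing value means element absent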
Details: Table A4-1; element C2
Counter-ions that a name gives are not always drawn.
Assignment: determine reported Ligand-pharmacophore element distance, pharmacophore element C2 for the given compounds.
Answers are plain numbers.

// below: answered compounds
[[record]]
compound = "Cc1nc(N)ccc1CNC(=O)[C@H](C)NC(=O)[C@H]1C[C@H](Cc2ccc3ccccc3c2)CN1 [compound 1338]"
reported = 0

[[record]]
compound = "Cc1nc(N)ccc1CNC(=O)[C@H](C)NC(=O)[C@H]1C[C@@H](c2ccccc2)CCN1CCC(=O)O [compound 1411, Trifluoroacetate salt]"
reported = 0.42

[[record]]
compound = "C[C@H](NC(=O)[C@H]1C[C@@H](c2ccccc2)CCN1)C(=O)NCc1cc(Cl)ccc1O.Cl [1078_1]"
reported = 0.69


Please report Ligand-pharmacophore element distance, pharmacophore element C2 for every entry that follows.
1. C[C@H](NC(=O)[C@H]1C[C@@H](c2ccccc2)CCN1)C(=O)NCc1cc(Cl)ccc1O.Cl [1078_11]
2. CC(NC(=O)C1CC(Cc2ccccc2)CN1)C(=O)NCc1cnc2c(c1)c(Cl)cn2C.Cl.Cl (stereo not drawn) [1450_B]
3. CC(NC(=O)C1CC(Cc2ccccc2)CN1)C(=O)NCc1cnc2c(c1)c(Cl)cn2C.Cl.Cl (mixture of isomers) [1450_A]
4. Cc1nc(N)ccc1CNC(=O)[C@H](C)NC(=O)[C@H]1C[C@@H](c2ccccc2)CCN1C [compound 1441]
5. C[C@H](NC(=O)[C@H](N)CCc1cc(Cl)cc(Cl)c1)C(=O)NCc1ccc(C(=N)N)cc1 [compound 1118]
6. C[C@H](NC(=O)[C@H]1C[C@@H](c2ccccc2)CCN1)C(=O)NCc1cc(Cl)ccc1O.Cl [1078_3]

[reply]
1: 0.6; 2: 0; 3: 0; 4: 0.54; 5: 0; 6: 0.43

Please report Ligand-pharmacophore element distance, pharmacophore element C2 for every entry that follows.
1. C[C@H](NC(=O)[C@H](N)C1Cc2ccccc2C1)C(=O)NCc1ccc2c(N)nccc2c1.Cl.Cl [1088_B]
2. Cc1nc(N)ccc1CNC(=O)[C@H](C)NC(=O)[C@H]1C[C@H](Cc2ccccc2)CN1 [compound 1304]
3. CC(=O)Nc1ccc(CCNC(CCc2ccccc2)C(=O)NC(C)C(=O)NCc2ccc(C(=N)N)cc2)cc1.Cl.Cl (stereo not drawn) [1345_1]
4. C[C@H](NC(=O)[C@H]1C[C@@H](c2ccccc2)CCN1)C(=O)NCc1cc(Cl)ccc1O.Cl [1078_16]
5. C[C@H](NC(=O)[C@H]1C[C@@H](c2ccccc2)CCN1)C(=O)NCc1cc(Cl)ccc1O.Cl [1078_9]
6. Cc1nc(N)ccc1CNC(=O)[C@H](C)NC(=O)[C@H]1C[C@H](Cc2cccc(Cl)c2)CN1.Cl.Cl [1328_4]

[reply]
[1.93, 0, 0, 0.64, 0.67, 0]
